Molecular target: hTRPA1 (Homo sapiens, UniProt O75762)
Construct: stably overexpressed in CHO cells
Sequence (O75762 whole entry): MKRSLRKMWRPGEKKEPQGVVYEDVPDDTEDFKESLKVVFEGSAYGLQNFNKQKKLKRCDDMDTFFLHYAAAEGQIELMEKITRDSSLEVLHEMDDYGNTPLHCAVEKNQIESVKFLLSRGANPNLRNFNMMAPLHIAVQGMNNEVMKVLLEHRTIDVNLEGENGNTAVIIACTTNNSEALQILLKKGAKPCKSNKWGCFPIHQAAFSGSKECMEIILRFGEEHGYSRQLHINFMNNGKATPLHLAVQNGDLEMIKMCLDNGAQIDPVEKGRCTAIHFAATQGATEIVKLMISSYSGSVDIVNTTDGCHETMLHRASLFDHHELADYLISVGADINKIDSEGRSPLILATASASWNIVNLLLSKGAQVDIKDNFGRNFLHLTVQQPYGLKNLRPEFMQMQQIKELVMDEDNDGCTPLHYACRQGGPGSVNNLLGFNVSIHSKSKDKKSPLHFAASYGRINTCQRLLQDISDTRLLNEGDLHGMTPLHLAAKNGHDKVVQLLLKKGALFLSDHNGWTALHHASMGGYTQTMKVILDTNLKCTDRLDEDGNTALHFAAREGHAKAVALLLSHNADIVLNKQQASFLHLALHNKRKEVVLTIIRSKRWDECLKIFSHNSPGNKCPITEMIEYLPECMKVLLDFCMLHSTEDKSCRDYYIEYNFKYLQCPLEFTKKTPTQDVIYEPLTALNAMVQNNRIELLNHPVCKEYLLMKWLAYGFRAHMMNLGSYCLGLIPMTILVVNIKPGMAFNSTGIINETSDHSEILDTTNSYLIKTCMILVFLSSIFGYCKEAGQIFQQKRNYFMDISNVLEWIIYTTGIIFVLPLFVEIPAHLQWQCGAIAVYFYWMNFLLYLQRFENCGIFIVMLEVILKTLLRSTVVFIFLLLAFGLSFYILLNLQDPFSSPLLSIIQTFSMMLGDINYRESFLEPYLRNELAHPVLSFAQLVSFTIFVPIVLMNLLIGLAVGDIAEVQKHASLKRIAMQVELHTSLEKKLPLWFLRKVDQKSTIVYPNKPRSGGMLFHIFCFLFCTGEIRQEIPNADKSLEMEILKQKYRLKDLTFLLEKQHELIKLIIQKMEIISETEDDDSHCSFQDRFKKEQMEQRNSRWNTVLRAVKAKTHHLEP
Experiment: Fluo-4 AM calcium influx, flow cytometry, CHO cells
Reported Endpoint: pEC50
Convention used: pEC50 is expressed as -log10 of the molar concentration.

## Input Requested field: pEC50. Item: `CC1=NCCS1`
## Output 2.30

###

Target: mTRPA1 (Mus musculus)
Construct: stably overexpressed in CHO cells
Sequence (Q8BLA8 whole entry): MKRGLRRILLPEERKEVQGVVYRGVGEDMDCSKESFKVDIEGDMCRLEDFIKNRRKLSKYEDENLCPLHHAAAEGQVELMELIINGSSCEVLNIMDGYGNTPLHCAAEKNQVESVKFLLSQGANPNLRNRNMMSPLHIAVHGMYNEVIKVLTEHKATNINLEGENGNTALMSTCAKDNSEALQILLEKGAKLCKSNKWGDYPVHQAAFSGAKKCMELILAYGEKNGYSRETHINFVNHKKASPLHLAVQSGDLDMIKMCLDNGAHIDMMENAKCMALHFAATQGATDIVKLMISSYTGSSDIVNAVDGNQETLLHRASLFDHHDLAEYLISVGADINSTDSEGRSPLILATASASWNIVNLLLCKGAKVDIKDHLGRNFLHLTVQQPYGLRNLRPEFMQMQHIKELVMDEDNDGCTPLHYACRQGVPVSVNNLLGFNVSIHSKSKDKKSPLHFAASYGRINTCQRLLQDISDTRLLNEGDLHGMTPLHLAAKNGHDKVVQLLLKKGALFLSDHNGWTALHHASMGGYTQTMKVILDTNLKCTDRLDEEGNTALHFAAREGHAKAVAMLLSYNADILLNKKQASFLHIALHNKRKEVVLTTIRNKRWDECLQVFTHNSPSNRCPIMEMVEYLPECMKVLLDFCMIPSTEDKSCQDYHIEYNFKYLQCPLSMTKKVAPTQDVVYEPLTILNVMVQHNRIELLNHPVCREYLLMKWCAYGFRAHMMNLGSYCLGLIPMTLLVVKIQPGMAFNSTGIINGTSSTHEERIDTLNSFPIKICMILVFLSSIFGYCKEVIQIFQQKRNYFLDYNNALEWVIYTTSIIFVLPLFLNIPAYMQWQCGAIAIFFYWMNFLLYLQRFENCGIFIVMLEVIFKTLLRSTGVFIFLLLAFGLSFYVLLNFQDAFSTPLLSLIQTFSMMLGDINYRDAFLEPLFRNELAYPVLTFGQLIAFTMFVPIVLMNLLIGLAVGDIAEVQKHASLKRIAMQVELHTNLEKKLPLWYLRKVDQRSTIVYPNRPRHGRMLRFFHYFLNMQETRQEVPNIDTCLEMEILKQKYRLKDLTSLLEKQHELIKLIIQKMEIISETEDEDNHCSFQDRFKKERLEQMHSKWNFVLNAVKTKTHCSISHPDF
Assay: Fluo-4 AM calcium influx, flow cytometry, CHO cells
Reported Endpoint: pEC50
Convention used: pEC50 is expressed as -log10 of the molar concentration.

## Input Field: pEC50 (mTRPA1 (Mus musculus)). Entry: CC1=NCCS1 [2-MT, 2-methyl-2-thiazoline]
## Output 2.35

Where do these numbers come from? They come from paper PMC8703823.
